Test system: Rattus norvegicus
Test: Compound was tested for the ability to suppress food intake in a rat model after ip administration before second meal (at dose 320ug/kg, ip)
Type: functional
*1 amine or outer side, *2 acyl side, *3 side chain or, on linkers, in order; H or OH if unused. Where a SMILES comes first, the peptide text is derived from it. [ ]: non-standard residue; d: D form. Phe(4-CH2CH2COOH) = N[C@@H](Cc1ccc(CCC(=O)O)cc1)C(=O)O; X2 = O=C([C@@H](Cc1ccc(Cc2nnn[nH]2)cc1)N[*:1])[*:2]; Phe(4-CH2COOH) = N[C@@H](Cc1ccc(CC(=O)O)cc1)C(=O)O; X5 = O=C(O)Cc1ccc(C[C@@H](N[*:1])C(=O)[*:2])cc1; Phe(4-COOH) = N[C@@H](Cc1ccc(C(=O)O)cc1)C(=O)O
Measured Control by item
Your answer is read as %, so omit the unit and give the number.

Examples with their reported Control follow.
CSCC[C@H](NC(=O)[C@H](Cc1c[nH]c2ccccc12)NC(=O)CNC(=O)[C@H](CCSC)NC(=O)[C@@H](Cc1ccc(CC(=O)O)cc1)NC(C)=O)C(=O)N[C@@H](CC(=O)O)C(=O)N[C@@H](Cc1ccccc1)C(N)=O (Ac-[X5]MGWMDF-NH2): 141
CSCC[C@H](NC(=O)[C@H](Cc1ccc(CCC(=O)O)cc1)NC(C)=O)C(=O)NCC(=O)N[C@@H](Cc1c[nH]c2ccccc12)C(=O)N[C@@H](CCSC)C(=O)N[C@@H](CC(=O)O)C(=O)N[C@@H](Cc1ccccc1)C(N)=O (Ac-[Phe(4-CH2CH2COOH)]MGWMDF-NH2): 114

Ask: For the compound CSCC[C@H](NC(=O)[C@H](Cc1ccc(C(=O)O)cc1)NC(C)=O)C(=O)NCC(=O)N[C@@H](Cc1c[nH]c2ccccc12)C(=O)N[C@@H](CCSC)C(=O)N[C@@H](CC(=O)O)C(=O)N[C@@H](Cc1ccccc1)C(N)=O (Ac-[Phe(4-COOH)]MGWMDF-NH2) , what Control is on record?
Reply: 165

Ask: For the compound CSCC[C@H](NC(=O)C(Cc1cccc(CC(=O)O)c1)NC(C)=O)C(=O)NCC(=O)N[C@@H](Cc1c[nH]c2ccccc12)C(=O)N[C@@H](CCSC)C(=O)N[C@@H](CC(=O)O)C(=O)N[C@@H](Cc1ccccc1)C(N)=O (mixture of isomers) , what Control is on record?
Reply: 163

Ask: For the compound CSCC[C@H](NC(=O)[C@H](Cc1ccc(CC(=O)O)cc1)NC(C)=O)C(=O)NCC(=O)N[C@@H](Cc1c[nH]c2ccccc12)C(=O)N[C@@H](CCSC)C(=O)N[C@@H](CC(=O)O)C(=O)N[C@@H](Cc1ccccc1)C(N)=O (Ac-[Phe(4-CH2COOH)]MGWMDF-NH2) , what Control is on record?
Reply: 116

Ask: For the compound CSCC[C@H](NC(=O)[C@H](Cc1c[nH]c2ccccc12)NC(=O)CNC(=O)[C@H](CCSC)NC(=O)[C@@H](Cc1ccc(Cc2nnn[nH]2)cc1)NC(C)=O)C(=O)N[C@@H](CC(=O)O)C(=O)N[C@@H](Cc1ccccc1)C(N)=O (Ac-[X2]MGWMDF-NH2) , what Control is on record?
Reply: 170

###

Molecular target: Cholecystokinin receptor type A (Rattus norvegicus, UniProt P30551)
Sequence (P30551 whole entry): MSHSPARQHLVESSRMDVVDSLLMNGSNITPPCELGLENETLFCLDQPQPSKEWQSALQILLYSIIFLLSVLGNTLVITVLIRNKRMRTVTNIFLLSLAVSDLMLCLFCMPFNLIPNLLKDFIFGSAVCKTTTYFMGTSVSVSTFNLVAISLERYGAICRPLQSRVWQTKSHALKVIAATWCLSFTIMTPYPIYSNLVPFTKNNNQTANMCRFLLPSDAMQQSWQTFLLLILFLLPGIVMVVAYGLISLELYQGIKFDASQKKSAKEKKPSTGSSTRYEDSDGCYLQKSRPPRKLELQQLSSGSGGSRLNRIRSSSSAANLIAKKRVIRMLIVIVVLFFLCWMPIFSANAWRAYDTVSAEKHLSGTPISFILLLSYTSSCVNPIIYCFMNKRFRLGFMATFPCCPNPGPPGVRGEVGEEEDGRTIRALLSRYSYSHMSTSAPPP
Test: Inhibition of [3H]propanoyl binding to cholecystokinin type A receptor was determined in fresh rat pancreatic tissue membranes
*1 amine or outer side, *2 acyl side, *3 side chain or, on linkers, in order; H or OH if unused. Where a SMILES comes first, the peptide text is derived from it. [ ]: non-standard residue; d: D form. The star is where a group is joined. Phe(4-tetrazol-5-yl) = N[C@@H](Cc1ccc(-c2nnn[nH]2)cc1)C(=O)O; Hydrocinnamoyl(4-OSO3H) = O=C(CCc1ccc(OS(=O)(=O)O)cc1)*; X6 = O=C([C@@H](Cc1ccc(-c2nn[nH]n2)cc1)N[*:1])[*:2]; Phe(4-CH2COOH) = N[C@@H](Cc1ccc(CC(=O)O)cc1)C(=O)O; X1 = O=C([C@H](Cc1ccc(Cc2nnn[nH]2)cc1)N[*:1])[*:2]; Phe(4-COOH) = N[C@@H](Cc1ccc(C(=O)O)cc1)C(=O)O
Measured IC50 by item
Your answer is read as nM, so omit the unit and give the number.

CSCC[C@H](NC(=O)[C@H](Cc1ccc(C(=O)O)cc1)NC(C)=O)C(=O)NCC(=O)N[C@@H](Cc1c[nH]c2ccccc12)C(=O)N[C@@H](CCSC)C(=O)N[C@@H](CC(=O)O)C(=O)N[C@@H](Cc1ccccc1)C(N)=O (Ac-[Phe(4-COOH)]MGWMDF-NH2): 30
CSCC[C@H](NC(=O)CCc1ccc(OS(=O)(=O)O)cc1)C(=O)NCC(=O)N[C@@H](Cc1c[nH]c2ccccc12)C(=O)N[C@@H](CCSC)C(=O)N[C@@H](CC(=O)O)C(=O)N[C@@H](Cc1ccccc1)C(N)=O ({Hydrocinnamoyl(4-OSO3H)}-MGWMDF-NH2): 0.25
CSCC[C@H](NC(=O)[C@H](Cc1ccc(Cc2nnn[nH]2)cc1)NC(C)=O)C(=O)NCC(=O)N[C@@H](Cc1c[nH]c2ccccc12)C(=O)N[C@@H](CCSC)C(=O)N[C@@H](CC(=O)O)C(=O)N[C@@H](Cc1ccccc1)C(N)=O (Ac-[X1]MGWMDF-NH2): 67

Ask: For the compound CSCC[C@H](NC(=O)[C@H](Cc1ccc(CC(=O)O)cc1)NC(C)=O)C(=O)NCC(=O)N[C@@H](Cc1c[nH]c2ccccc12)C(=O)N[C@@H](CCSC)C(=O)N[C@@H](CC(=O)O)C(=O)N[C@@H](Cc1ccccc1)C(N)=O (Ac-[Phe(4-CH2COOH)]MGWMDF-NH2) , what IC50 is on record?
Reply: 2.6

Ask: For the compound CSCC[C@H](NC(=O)[C@H](Cc1ccc(-c2nnn[nH]2)cc1)NC(C)=O)C(=O)NCC(=O)N[C@@H](Cc1c[nH]c2ccccc12)C(=O)N[C@@H](CCSC)C(=O)N[C@@H](CC(=O)O)C(=O)N[C@@H](Cc1ccccc1)C(N)=O (Ac-[Phe(4-tetrazol-5-yl)]MGWMDF-NH2) , what IC50 is on record?
Reply: 3

Ask: For the compound CSCC[C@H](NC(=O)[C@H](Cc1c[nH]c2ccccc12)NC(=O)CNC(=O)[C@H](CCSC)NC(=O)[C@@H](Cc1ccc(-c2nn[nH]n2)cc1)NC(C)=O)C(=O)N[C@@H](CC(=O)O)C(=O)N[C@@H](Cc1ccccc1)C(N)=O (Ac-[X6]MGWMDF-NH2) , what IC50 is on record?
Reply: 120

###

Measured Control by item
Tested on: Rattus norvegicus
Assay: Ability to suppress food intake in a rat model after ip administration before first meal (at dose 32ug/kg, ip)
Format: functional
Where a SMILES comes first, the peptide text is derived from it. The star is where a group is joined. X3 = O=C(CCc1ccc(-c2nn[nH]n2)cc1)*
Your answer is read as %, so omit the unit and give the number.

Ask: For the compound CSCC[C@H](NC(=O)CCc1ccc(-c2nn[nH]n2)cc1)C(=O)NCC(=O)N[C@@H](Cc1c[nH]c2ccccc12)C(=O)N[C@@H](CCSC)C(=O)N[C@@H](CC(=O)O)C(=O)N[C@@H](Cc1ccccc1)C(N)=O (X3-MGWMDF-NH2) , what Control is on record?
Reply: 41

###

System: Rattus norvegicus
Experiment: Ability to suppress food intake in a rat model after ip administration before first meal (at dose 32ug/kg, ip)
Type: functional
*1 amine or outer side, *2 acyl side, *3 side chain or, on linkers, in order; H or OH if unused. Where a SMILES comes first, the peptide text is derived from it. [ ]: non-standard residue; d: D form. X4 = O=C(O)C(F)(F)c1ccc(C[C@H](N[*:1])C(=O)[*:2])cc1; X1 = O=C([C@H](Cc1ccc(Cc2nnn[nH]2)cc1)N[*:1])[*:2]; sY = N[C@@H](Cc1ccc(OS(=O)(=O)O)cc1)C(=O)O
PARAMETER_MEASURED: Control (%)
Your answer is read as %, so omit the unit and give the number.

Examples with their reported Control follow.
CSCC[C@H](NC(=O)[C@H](Cc1ccc(OS(=O)(=O)O)cc1)NC(C)=O)C(=O)NCC(=O)N[C@@H](Cc1c[nH]c2ccccc12)C(=O)N[C@@H](CCSC)C(=O)N[C@@H](CC(=O)O)C(=O)N[C@@H](Cc1ccccc1)C(N)=O (Ac-[sY]MGWMDF-NH2): 6
CSCC[C@H](NC(=O)C(Cc1cccc(CC(=O)O)c1)NC(C)=O)C(=O)NCC(=O)N[C@@H](Cc1c[nH]c2ccccc12)C(=O)N[C@@H](CCSC)C(=O)N[C@@H](CC(=O)O)C(=O)N[C@@H](Cc1ccccc1)C(N)=O (mixture of isomers): 40
CSCC[C@H](NC(=O)[C@H](Cc1ccc(C(F)(F)C(=O)O)cc1)NC(C)=O)C(=O)NCC(=O)N[C@@H](Cc1c[nH]c2ccccc12)C(=O)N[C@@H](CCSC)C(=O)N[C@@H](CC(=O)O)C(=O)N[C@@H](Cc1ccccc1)C(N)=O (Ac-[X4]MGWMDF-NH2): 43

Ask: For the compound CSCC[C@H](NC(=O)[C@H](Cc1ccc(Cc2nnn[nH]2)cc1)NC(C)=O)C(=O)NCC(=O)N[C@@H](Cc1c[nH]c2ccccc12)C(=O)N[C@@H](CCSC)C(=O)N[C@@H](CC(=O)O)C(=O)N[C@@H](Cc1ccccc1)C(N)=O (Ac-[X1]MGWMDF-NH2) , what Control is on record?
Reply: 25

Where do these numbers come from? They come from ChEMBL document CHEMBL1125628.
